These entries and their values trace back to patent US20130072665A1.

Target: T1, PCSK9 ProCat (31-449 of SEQ ID NO: 3) (human, UniProt Q8NBP7 27-449)
T1 construct: From PCSK9 449TEV after rTEV cleavage: GAMG-PCSK9 (31-449)-ENLYFQ; Written as one chain; autocatalysis between 152 and 153 splits pro-domain and catalytic domain; also called procat PCSK9; PCSK9 31-449
Experiment: domain binding ELISA (coated antibody captures the PCSK9 form; OD650)

>  <Binder>
27H5 (antibody, V domains shown) VH: QVQLVQSGAEVKRPGASVKVSCKASGYTLTSYGISWVRQAPGQGLEWMGWISVYNGNTNYAQKVQGRVTMTTDTSTSTVYMELRSLSSDDTAVYYCARGYGMDVWGQGTTVTVSS VL: QSALTQPASVSGSPGQSITISCTGTSSDVGGYNSVSWYQQHPGKPPKLMIYEVSNRPSGVSIRFSGSKSGNTASLTISGLQAEDEADYFCSSYTSTSMVFGGGTKLTVL

>  <binding result>
binds

$$$$
>  <Binder>
30B9 (antibody, V domains shown) VH: QVQLVQSGAEVKKPGASVKVSCKASGYPLTSYGISWVRQAPGQGLEWMGWISAYNGNTNYAQKVQGRVTMTTDTSTSTVYMELRSLRSDDTAVYYCARGYGMDVWGQGTTVTVSS VL: QSALTQPASVSGSPGQSITISCTGTSSDVGGYNSVSWYQQHPGKPPKLMIYEVSNRPSGVSNRFSGSKSGNTASLTISGLQAEDEADYFCSSYTSTSMVFGGGTKLTVL

>  <binding result>
binds

$$$$
>  <Binder>
25G4 (antibody, V domains shown) VH: EVQLLESGGGLVQPGGSLRLSCAASGFTFSSYAMNWVRQAPGKGLEWVSTISGSGGNTYYADSVKGRFTISRDNSKNTLYLQMNSLRAEDTAVYYCAKKFVLMVYAMLDYWGQGTLVTVSS VL: DIQMTQSPSSLSASVGDRVTITCRASQSISIYLNWYQQKPGKAPYLLIYAAASLQSGVPSRFSGSGSGTDFTLTISSLQPEDFATYYCQQSYSAPITFGQGTRLEIK

>  <binding result>
binds

$$$$
